Hey, just so you know, these numbers are from patent US12281155.

# system: T1, recombinant SARS-CoV-2 Spike RBD domain, EG.5 variant (SARS-CoV-2)
# T1 construct: also called RBD EG.5.1 variant
# assay protocol: ELISA on coated RBD

>  <binder>
SPK002M C1 antibody (antibody, human IgG1, kappa, V domains shown) VH: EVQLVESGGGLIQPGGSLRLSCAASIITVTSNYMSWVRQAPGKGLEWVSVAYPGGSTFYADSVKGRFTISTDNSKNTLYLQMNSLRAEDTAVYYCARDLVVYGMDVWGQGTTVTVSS VL: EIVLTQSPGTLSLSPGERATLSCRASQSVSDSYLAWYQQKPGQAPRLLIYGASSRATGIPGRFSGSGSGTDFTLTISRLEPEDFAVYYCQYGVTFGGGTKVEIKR

>  <Binding AUC>
32

$$$$
>  <binder>
SPK002M C3 antibody (antibody, human IgG1, kappa, V domains shown) VH: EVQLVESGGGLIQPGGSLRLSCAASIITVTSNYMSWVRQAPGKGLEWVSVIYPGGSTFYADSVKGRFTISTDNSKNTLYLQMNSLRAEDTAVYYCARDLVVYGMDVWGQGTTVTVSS VL: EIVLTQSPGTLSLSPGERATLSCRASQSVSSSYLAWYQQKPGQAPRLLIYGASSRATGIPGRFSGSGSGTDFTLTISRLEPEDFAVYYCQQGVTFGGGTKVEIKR

>  <Binding AUC>
33

$$$$
>  <binder>
SPK002M A4 antibody (antibody, human IgG1, kappa, V domains shown) VH: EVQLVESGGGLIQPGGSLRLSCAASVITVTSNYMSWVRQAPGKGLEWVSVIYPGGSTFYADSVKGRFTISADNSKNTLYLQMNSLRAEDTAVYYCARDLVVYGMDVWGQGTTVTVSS VL: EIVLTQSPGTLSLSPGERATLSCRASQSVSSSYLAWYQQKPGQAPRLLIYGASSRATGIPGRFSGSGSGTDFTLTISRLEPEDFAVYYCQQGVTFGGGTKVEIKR

>  <Binding AUC>
34

$$$$
>  <binder>
SPK002M A5 antibody (antibody, human IgG1, kappa, V domains shown) VH: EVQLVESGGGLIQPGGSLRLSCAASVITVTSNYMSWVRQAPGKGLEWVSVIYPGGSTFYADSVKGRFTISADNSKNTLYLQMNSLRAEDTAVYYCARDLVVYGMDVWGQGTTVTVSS VL: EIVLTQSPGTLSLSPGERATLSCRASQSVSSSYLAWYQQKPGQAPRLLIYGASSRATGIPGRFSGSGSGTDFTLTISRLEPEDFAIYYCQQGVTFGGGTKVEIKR

>  <Binding AUC>
35

$$$$
>  <binder>
SPK002M B1 antibody (antibody, human IgG1, kappa, V domains shown) VH: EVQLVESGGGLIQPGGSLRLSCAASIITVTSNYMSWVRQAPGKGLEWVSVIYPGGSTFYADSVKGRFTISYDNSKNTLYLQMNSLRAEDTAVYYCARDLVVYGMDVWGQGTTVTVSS VL: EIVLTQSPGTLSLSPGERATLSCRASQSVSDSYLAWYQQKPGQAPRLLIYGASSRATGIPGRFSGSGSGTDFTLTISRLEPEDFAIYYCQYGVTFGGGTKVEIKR

>  <Binding AUC>
33

$$$$
>  <binder>
SPK002M A2 antibody (antibody, human IgG1, kappa, V domains shown) VH: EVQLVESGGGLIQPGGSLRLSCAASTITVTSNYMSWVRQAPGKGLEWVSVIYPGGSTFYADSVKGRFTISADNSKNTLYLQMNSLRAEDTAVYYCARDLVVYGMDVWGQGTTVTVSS VL: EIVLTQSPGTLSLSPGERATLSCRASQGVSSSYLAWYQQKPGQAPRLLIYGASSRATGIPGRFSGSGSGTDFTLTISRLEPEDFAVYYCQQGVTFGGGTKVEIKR

>  <Binding AUC>
35

$$$$
>  <binder>
SPK002M C2 antibody (antibody, human IgG1, kappa, V domains shown) VH: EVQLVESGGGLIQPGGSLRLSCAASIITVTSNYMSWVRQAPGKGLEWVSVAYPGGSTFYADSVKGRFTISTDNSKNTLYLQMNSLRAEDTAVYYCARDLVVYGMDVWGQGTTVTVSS VL: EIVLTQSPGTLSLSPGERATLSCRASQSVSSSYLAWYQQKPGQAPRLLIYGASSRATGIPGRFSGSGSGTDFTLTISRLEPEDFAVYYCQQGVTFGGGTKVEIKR

>  <Binding AUC>
32

$$$$
>  <binder>
SPK002M A3 antibody (antibody, human IgG1, kappa, V domains shown) VH: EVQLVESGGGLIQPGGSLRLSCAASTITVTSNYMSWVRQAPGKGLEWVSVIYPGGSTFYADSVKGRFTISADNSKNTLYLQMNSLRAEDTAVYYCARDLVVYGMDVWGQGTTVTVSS VL: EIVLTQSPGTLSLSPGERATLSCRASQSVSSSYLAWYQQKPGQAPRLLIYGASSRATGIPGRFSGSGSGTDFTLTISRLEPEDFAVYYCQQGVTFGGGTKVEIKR

>  <Binding AUC>
34

$$$$
>  <binder>
SPK002M B2 antibody (antibody, human IgG1, kappa, V domains shown) VH: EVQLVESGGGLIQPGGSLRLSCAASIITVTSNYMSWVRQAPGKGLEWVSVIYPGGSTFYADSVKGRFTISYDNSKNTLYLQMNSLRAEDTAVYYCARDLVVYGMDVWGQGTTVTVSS VL: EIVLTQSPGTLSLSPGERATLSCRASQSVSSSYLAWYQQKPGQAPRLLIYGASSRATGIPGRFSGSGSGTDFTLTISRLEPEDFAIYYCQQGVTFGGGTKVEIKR

>  <Binding AUC>
32

$$$$
>  <binder>
SPK002M A1 antibody (antibody, human IgG1, kappa, V domains shown) VH: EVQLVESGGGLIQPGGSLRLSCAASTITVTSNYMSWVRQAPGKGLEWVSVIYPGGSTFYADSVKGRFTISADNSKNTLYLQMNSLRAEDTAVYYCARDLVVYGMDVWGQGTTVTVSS VL: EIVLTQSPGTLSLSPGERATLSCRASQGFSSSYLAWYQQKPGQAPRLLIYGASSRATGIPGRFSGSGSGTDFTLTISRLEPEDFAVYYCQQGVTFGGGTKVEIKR

>  <Binding AUC>
35

$$$$
